target: Voltage-dependent T-type calcium channel subunit alpha-1H (Homo sapiens); assay: In vitro inhibitory effect on alpha-1H T-type [Ca2+] channels expressed in Xenopus oocytes at 100 uM; format: functional, cell-based; details: Oocyte
Measure Name: inhibition (%)

The following compounds have reported results that may help.
# Compound, Readout Units, inhibition
records = [
    ("O=C(O)CC1c2ccccc2N=C(N2CCCCC2)N1c1ccccc1 (stereo unspecified)", "%", 8),
    ("CN1CCN(C2=Nc3ccccc3C(CC(=O)O)N2c2ccccc2)CC1 (stereo unspecified)", "%", 15),
]

I: O=C(CC1c2ccccc2N=C(N2CCCCC2)N1c1ccccc1)NCc1ccc([N+](=O)[O-])cc1 (stereo unspecified)
II: COC(=O)CC1c2ccccc2N=C(N2CCN(C)CC2)N1C(C)C (stereo unspecified)
III: O=C(CC1c2ccccc2N=C(N2CCOCC2)N1c1ccccc1)NCc1ccccc1 (stereo unspecified)
Q. Returns the items ordered by inhibition, from maximum to minimum. Answer by naming the labels in the order asked.
A. I, III, II

a: O=C(CC1c2ccccc2N=C(c2ccccc2)N1c1ccccc1)OCc1ccccc1 (stereo unspecified)
b: O=C(O)CC1c2ccccc2N=C(N2CCOCC2)N1c1ccccc1 (stereo unspecified)
c: CN1CCN(C2=Nc3ccccc3C(CC(=O)OCc3ccccc3)N2c2ccccc2)CC1 (stereo unspecified)
Q. Please give the order of these compounds when sorted by inhibition, largest value leading. Thanks in advance for listing the labels in the requested order.
A. c, a, b

I: COC(=O)CC1c2ccccc2N=C(N2CCCCC2)N1c1ccccc1 (stereo unspecified)
II: Cc1ccc(S(=O)(=O)Nc2ccc(CNC(=O)CC3c4ccccc4N=C(N4CCCCC4)N3c3ccccc3)cc2)cc1 (stereo unspecified)
Q. Looking at recorded values for inhibition, does I or II come in lower? Your answer should be the label attached to the chosen record.
A. I
